system: Rattus norvegicus; assay: Effect on the development of adjuvant arthritis in the rats was evaluated as % suppression of arthritis at a dose of 0.25 mg/kg; format: functional
# Suppression values compiled below
Provide the measurement as a number trailed by its unit.

[
  {
    "compound": "Nc1nc(N)c2nc(CN3CCOc4cc(C(=O)NC(CCCC(=O)O)C(=O)O)ccc43)cnc2n1 (centres undefined)",
    "Suppression": "18%"
  },
  {
    "compound": "Nc1nc(N)c2nc(CN3CCOc4cc(C(=O)NC(CCC(=O)O)C(=O)O)ccc43)cnc2n1 (centres undefined)",
    "Suppression": "94%"
  },
  {
    "compound": "CN(Cc1cnc2nc(N)nc(N)c2n1)c1ccc(C(=O)N[C@@H](CCC(=O)O)C(=O)O)cc1 [METHOTREXATE]",
    "Suppression": "92%"
  }
]

Incoming: Quickly give me recorded Suppression for Nc1nc(N)c2nc(CN3CCSc4cc(C(=O)NC(CCCC(=O)O)C(=O)O)ccc43)cnc2n1 (centres undefined)
Outgoing: 20%

* * *

assay: In vitro growth inhibition of human peripheral blood mononuclear cells (hPBMC); type: functional
In this section, each of the compounds is paired with its reported pIC50.
Friendly reminder that pIC50 comes from taking -log10 of the concentration in mol/L.

[
  {
    "compound": "Nc1nc(N)c2nc(CN3CCc4cc(C(=O)NC(CCCC(=O)O)C(=O)O)ccc43)cnc2n1 (stereo unspecified)",
    "property": "pIC50",
    "quantitative readout": 7.70
  },
  {
    "compound": "Nc1nc(N)c2nc(CN3CCOc4cc(C(=O)NC(CCC(=O)O)C(=O)O)ccc43)cnc2n1 (stereo unspecified)",
    "property": "pIC50",
    "quantitative readout": 7.62
  },
  {
    "compound": "Nc1nc(N)c2nc(CN3CCSc4cc(C(=O)NC(CCCC(=O)O)C(=O)O)ccc43)cnc2n1 (stereo unspecified)",
    "property": "pIC50",
    "quantitative readout": 7.49
  },
  {
    "compound": "CN(Cc1cnc2nc(N)nc(N)c2n1)c1ccc(C(=O)N[C@@H](CCC(=O)O)C(=O)O)cc1 [METHOTREXATE]",
    "property": "pIC50",
    "quantitative readout": 7.62
  },
  {
    "compound": "Nc1nc(N)c2nc(CN3CCOc4cc(C(=O)NC(CCCC(=O)O)C(=O)O)ccc43)cnc2n1 (stereo unspecified)",
    "property": "pIC50",
    "quantitative readout": 7.35
  }
]

Then this compound:
Incoming: Annotate the compound Nc1nc(N)c2nc(CN3CCSc4cc(C(=O)NC(CCC(=O)O)C(=O)O)ccc43)cnc2n1 (stereo unspecified) with its measured pIC50.
Outgoing: 7.92
